Assignment: determine reported IC50 for the given molecules.
Target: hα2A receptor (Homo sapiens)
Construct: expressed in transfected cells
Sequence (P08913 whole entry): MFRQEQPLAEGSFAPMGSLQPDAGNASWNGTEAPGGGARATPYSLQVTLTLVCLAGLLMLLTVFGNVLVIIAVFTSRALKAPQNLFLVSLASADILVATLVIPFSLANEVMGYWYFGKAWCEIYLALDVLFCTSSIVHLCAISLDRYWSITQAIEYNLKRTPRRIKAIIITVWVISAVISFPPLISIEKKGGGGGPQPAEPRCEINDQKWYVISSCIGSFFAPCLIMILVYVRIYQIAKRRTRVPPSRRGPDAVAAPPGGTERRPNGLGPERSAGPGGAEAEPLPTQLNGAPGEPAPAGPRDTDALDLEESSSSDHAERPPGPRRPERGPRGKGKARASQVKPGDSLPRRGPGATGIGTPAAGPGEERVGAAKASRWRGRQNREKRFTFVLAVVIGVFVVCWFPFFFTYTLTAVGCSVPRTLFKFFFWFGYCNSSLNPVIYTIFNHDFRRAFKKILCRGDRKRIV
Experiment: Radioligand binding experiment for hα2A receptor ([3H]-raulwolscine, CHO cell membranes)
Details: [3H]raulwolscine 1 nM, membranes of CHO cells transfected with human α2A receptor; read-out: h-α2A pIC50 (converted)
Answers are plain numbers, in nM.

Batch request: IC50 for each of the following molecules.
1. NCc1ccc(Cn2ccnc(NC3CCN(CCOc4ccccc4)CC3)c2=O)cc1
2. O=C1c2ccccc2C(=O)N1CCCn1ccnc(NC2CCN(CCOc3ccccc3)CC2)c1=O
3. CN(Cc1ccccc1)C(=O)Cn1ccnc(NC2CCN(CCOc3ccccc3)CC2)c1=O
4. COCCn1ccnc(NC2CCN(CCOc3ccccc3)CC2)c1=O
5. O=c1c(N2CCN(CCOc3ccc(F)cc3)CC2)nccn1Cc1ccc2ccccc2c1
6. O=C(Cn1ccnc(NC2CCN(CCOc3ccccc3)CC2)c1=O)N1CCC(Cc2ccccc2)CC1

Result:
[15.8, 200, 126, 631, 126, 158]

Batch request: IC50 for each of the following molecules.
1. CCCCN(Cc1ccccc1)C(=O)Cn1ccnc(NC2CCN(CCOc3ccccc3)CC2)c1=O
2. O=C(Cn1ccnc(NC2CCN(CCOc3ccccc3)CC2)c1=O)Nc1ccccc1
3. CCCn1ccnc(NC2CCN(CCOc3ccccc3)CC2)c1=O
4. COc1ccc(-c2nnc(Cn3ccnc(N4CCN(CCOc5ccc(F)cc5)CC4)c3=O)o2)cc1
5. CN(C)C(=O)Cn1ccnc(NC2CCN(CCOc3ccccc3)CC2)c1=O
6. C#CCN(C)C(=O)Cn1ccnc(NC2CCN(CCOc3ccccc3)CC2)c1=O
7. O=c1c(NC2CCN(CCOc3ccccc3)CC2)nccn1-c1ccc(N2CCCCC2)cc1

Result:
[126, 158, 100, 158, 501, 251, 200]

Batch request: IC50 for each of the following molecules.
1. NCc1ccc(Cn2ccnc(N3CCN(CCOc4ccc(F)cc4)CC3)c2=O)cc1
2. CN(C(=O)Cn1ccnc(NC2CCN(CCOc3ccccc3)CC2)c1=O)C1CCCCC1
3. Cc1nc(Cn2ccnc(N3CCN(CCOc4ccc(F)cc4)CC3)c2=O)cs1
4. O=c1c(NC2CCN(CCOc3ccccc3)CC2)nccn1Cc1cccc(Br)c1
5. CC(C)(C)C(=O)Cn1ccnc(NC2CCN(CCOc3ccccc3)CC2)c1=O [Compound 5-6]
6. O=c1c(N2CCN(CCOc3ccc(F)cc3)CC2)nccn1CCCc1ccccc1

Result:
1: 158; 2: 126; 3: 251; 4: 158; 5: 200; 6: 251

Batch request: IC50 for each of the following molecules.
1. O=c1c(NC2CCN(CCOc3ccccc3)CC2)nccn1CCCn1c(=O)[nH]c2ccccc21
2. O=c1c(N2CCN(CCOc3ccc(F)cc3)CC2)nccn1Cc1ccc(-c2ccccc2)cc1
3. CCOC(=O)CCCCn1ccnc(NC2CCN(CCOc3ccccc3)CC2)c1=O
4. CC(C)(C)OC(=O)NCc1ccc(Cn2ccnc(N3CCN(CCOc4ccc(F)cc4)CC3)c2=O)cc1

Result:
1. 126
2. 316
3. 251
4. 398

Batch request: IC50 for each of the following molecules.
1. CN(C)CCn1ccnc(NC2CCN(CCOc3ccccc3)CC2)c1=O
2. NCCCn1ccnc(NC2CCN(CCOc3ccccc3)CC2)c1=O
3. O=c1c(NC2CCN(CCOc3ccccc3)CC2)nccn1-c1cccc(NCc2ccccc2)c1
4. O=C(Cn1ccnc(NC2CCN(CCOc3ccccc3)CC2)c1=O)NCc1ccccc1
5. CN(C)CCCn1ccnc(NC2CCN(CCOc3ccccc3)CC2)c1=O
6. CN(C(=O)Cn1ccnc(NC2CCN(CCOc3ccccc3)CC2)c1=O)c1ccccc1
7. CN(CCc1ccccc1)C(=O)Cn1ccnc(NC2CCN(CCOc3ccccc3)CC2)c1=O

Result:
[158, 126, 50.1, 251, 200, 100, 200]

Batch request: IC50 for each of the following molecules.
1. O=C(Cn1ccnc(NC2CCN(CCOc3ccccc3)CC2)c1=O)N1CCCCC1
2. O=c1c(N2CCN(CCOc3ccc(F)cc3)CC2)nccn1C/C=C/c1ccccc1
3. O=c1c(NC2CCN(CCOc3ccccc3)CC2)nccn1CCN1CCCCC1

Result:
1: 251; 2: 251; 3: 100

Ask: Fill in: IC50 of O=c1c(NC2CCN(CCOc3ccccc3)CC2)nccn1CC1CCCCO1 (stereo not shown) is ___
Result: 501
